# measured.on: T1, cyno IL-33 N-His (cynomolgus monkey)
# T1 chain: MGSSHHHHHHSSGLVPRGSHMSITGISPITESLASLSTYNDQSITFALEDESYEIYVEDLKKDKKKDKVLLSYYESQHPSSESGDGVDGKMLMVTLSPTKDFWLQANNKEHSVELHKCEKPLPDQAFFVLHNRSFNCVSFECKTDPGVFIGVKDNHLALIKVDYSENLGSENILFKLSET
# assay.summary: SPR Biacore T200, 25 C
Exercise: for every item that follows, state its recorded kon.
Express your answer in M⁻¹ s⁻¹, writing the number without its unit.

I would be grateful if you could share the reported kon for H4H9633P (antibody, IgG4, V domains shown, also called RG5) VH: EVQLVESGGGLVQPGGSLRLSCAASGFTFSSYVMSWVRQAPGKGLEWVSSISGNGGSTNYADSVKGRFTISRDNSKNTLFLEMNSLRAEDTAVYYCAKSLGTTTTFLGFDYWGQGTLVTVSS VL: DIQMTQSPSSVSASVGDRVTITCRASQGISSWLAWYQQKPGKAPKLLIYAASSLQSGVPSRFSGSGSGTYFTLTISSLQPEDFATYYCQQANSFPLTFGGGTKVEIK .
227000

H4H9676P (antibody, V domains shown) VH: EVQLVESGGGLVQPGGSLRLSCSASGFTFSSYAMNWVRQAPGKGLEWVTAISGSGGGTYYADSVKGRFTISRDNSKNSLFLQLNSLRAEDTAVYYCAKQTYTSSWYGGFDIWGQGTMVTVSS VL: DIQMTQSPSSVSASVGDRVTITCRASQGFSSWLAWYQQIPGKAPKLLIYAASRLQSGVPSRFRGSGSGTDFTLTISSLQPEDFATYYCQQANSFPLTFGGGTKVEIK , same question.
787000

What about H1M9566N (antibody, IgG1, V domains shown, also called RG2) VH: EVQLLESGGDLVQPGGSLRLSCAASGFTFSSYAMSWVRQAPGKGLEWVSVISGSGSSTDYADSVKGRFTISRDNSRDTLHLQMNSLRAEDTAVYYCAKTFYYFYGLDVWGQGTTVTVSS VL: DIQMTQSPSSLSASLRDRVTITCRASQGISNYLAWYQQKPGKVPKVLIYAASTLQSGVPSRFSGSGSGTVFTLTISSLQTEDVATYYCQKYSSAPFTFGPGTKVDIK ?
117000

Query H4H9670P (antibody, V domains shown) VH: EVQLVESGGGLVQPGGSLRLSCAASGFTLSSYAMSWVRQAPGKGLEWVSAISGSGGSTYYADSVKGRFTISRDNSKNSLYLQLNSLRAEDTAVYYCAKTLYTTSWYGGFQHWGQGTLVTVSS VL: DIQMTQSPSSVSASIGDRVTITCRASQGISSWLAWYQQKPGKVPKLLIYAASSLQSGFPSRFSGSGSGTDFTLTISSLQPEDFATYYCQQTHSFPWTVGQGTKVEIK next
212000

Could you do the same for H4H9664P (antibody, V domains shown) VH: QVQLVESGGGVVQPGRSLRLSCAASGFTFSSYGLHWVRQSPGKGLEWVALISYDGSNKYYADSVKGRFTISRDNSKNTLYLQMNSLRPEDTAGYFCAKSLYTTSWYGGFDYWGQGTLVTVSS VL: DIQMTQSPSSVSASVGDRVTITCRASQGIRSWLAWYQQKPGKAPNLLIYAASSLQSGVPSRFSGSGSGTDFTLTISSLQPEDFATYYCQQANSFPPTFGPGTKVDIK , please?
99000

Queued: H1M9559N (antibody, IgG1, V domains shown, also called RG1) VH: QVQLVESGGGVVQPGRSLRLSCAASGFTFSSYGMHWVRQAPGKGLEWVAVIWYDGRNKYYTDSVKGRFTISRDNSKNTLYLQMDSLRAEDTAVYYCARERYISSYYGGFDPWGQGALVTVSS VL: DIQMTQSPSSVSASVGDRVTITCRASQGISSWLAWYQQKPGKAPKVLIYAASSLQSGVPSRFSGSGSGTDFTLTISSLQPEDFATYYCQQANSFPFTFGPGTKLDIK
122000

Please answer likewise for H4H9672P (antibody, V domains shown) VH: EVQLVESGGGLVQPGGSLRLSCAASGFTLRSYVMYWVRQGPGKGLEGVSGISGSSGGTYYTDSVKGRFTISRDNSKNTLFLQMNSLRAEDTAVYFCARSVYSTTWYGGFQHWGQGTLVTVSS VL: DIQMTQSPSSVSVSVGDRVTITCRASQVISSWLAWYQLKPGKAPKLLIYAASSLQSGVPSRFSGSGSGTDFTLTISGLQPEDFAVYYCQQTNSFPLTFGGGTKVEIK
331000

Repeat with H4H9660P (antibody, V domains shown) VH: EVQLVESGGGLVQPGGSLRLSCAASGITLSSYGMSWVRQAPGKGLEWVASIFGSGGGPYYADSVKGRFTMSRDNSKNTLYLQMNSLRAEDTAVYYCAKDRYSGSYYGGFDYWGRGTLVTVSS VL: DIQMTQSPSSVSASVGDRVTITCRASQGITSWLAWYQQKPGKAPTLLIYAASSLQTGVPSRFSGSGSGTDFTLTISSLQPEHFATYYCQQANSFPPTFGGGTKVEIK
238000

Same again, this time with H4H9640P (antibody, IgG4, V domains shown, also called RG6) VH: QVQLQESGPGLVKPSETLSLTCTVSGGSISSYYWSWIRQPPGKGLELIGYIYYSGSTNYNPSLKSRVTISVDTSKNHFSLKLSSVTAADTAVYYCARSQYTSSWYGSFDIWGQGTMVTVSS VL: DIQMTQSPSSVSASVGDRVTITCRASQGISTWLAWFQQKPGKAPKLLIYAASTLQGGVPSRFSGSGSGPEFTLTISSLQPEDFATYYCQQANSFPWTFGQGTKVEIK
244000

Proceed to 10C12.38.H6.87Y.58I IgG4 (antibody, V domains shown, also called anti-IL33 10C12.38.H6.87Y.58I IgG4) VH: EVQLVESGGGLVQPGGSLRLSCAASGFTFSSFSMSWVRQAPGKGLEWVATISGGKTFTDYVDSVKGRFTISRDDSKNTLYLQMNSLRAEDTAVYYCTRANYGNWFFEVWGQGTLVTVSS VL: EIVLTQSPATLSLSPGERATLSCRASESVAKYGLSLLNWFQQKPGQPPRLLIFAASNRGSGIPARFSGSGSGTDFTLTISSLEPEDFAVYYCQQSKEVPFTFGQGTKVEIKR
1.05e+06
